tested on: Plasmodium berghei; assay: Luciferase/luciferin-expressing antifolate-resistant parasites were used to infect a culture of HepG2 cells that were pre-incubated with compounds. Infected hepatocytes emit light due to the luciferase reaction. Assay results are presented as the percent inhibition of light emission compared to control. […]; assay type: functional; conditions: sporozoite, PBLUC_HILL_SLOPE 11.3, PBLUC_R_SQUARED 0.117, read-out: LUCIFERASE INFECTION ASSAY - IC50
observation_type: IC50 (µM)
Only the number, expressed in µM, is required.

input: Specify IC50 for CSc1nc(Sc2nnc(-c3ccc(C(C)(C)C)cc3)[nH]2)cc(Sc2nnc(-c3ccc(C(C)(C)C)cc3)[nH]2)n1 , system Plasmodium berghei.
output: 5.38
